Experiment: Viability qHTS for spleen associated tyrosine kinase inhibitor (SYKi) drug resistant MV4-11 cells (AID 1963824); note: nearly all actives have a fitted effect of over 35% in size
Conditions: SYKi-resistant MV4-11 viability, CellTiter-Glo, 72 h; series mostly up to 45 µM
Inconclusive results are not listed. Calls of active or inactive are those of the source. Calls come from the whole dose curve; as a rule, active = well fitted cell-killing curve with a large enough effect; inconclusive = small, poorly fitted or top-dose-only effect, or effect the other way; inactive = no such curve, though single readings can be large or run the other way.
Possible outcomes: active, inactive

[[record]]
molecule = "CN1CCN(C(=O)CN[C@@H]2C[C@H]2c2ccc(OCc3ccccc3)cc2)CC1"
discrete_label = "active"

[[record]]
molecule = "CN(C)[C@@H]1C(=O)C(C(=O)NCN2CCCC2)=C(O)[C@@]2(O)C(=O)C3=C(O)c4c(O)cccc4[C@@](C)(O)C3C[C@@H]12 (some centres not stated)"
discrete_label = "inactive"

[[record]]
molecule = "O=C(O)CNC(=O)c1ccccc1"
discrete_label = "inactive"

[[record]]
molecule = "Nc1ccc([N+](=O)[O-])c(C(F)(F)F)c1"
discrete_label = "inactive"

[[record]]
molecule = "Cc1oc2nc3c(c(NC(=O)CN4CCCC4=O)c2c1C)CCCC3"
discrete_label = "inactive"

[[record]]
molecule = "CCCSc1nc(NC2CC2c2ccc(F)c(F)c2)c2nnn(C3CC(OCCO)C(O)C3O)c2n1 (configuration not stated)"
discrete_label = "active"

[[record]]
molecule = "N=C(N=C(N)N)N1CCOCC1"
discrete_label = "inactive"

[[record]]
molecule = "COc1cc2ncnc(Nc3cccc(O)c3)c2cc1OC"
discrete_label = "active"

[[record]]
molecule = "O=C(OCCOCCO)c1ccccc1Nc1cccc(C(F)(F)F)c1"
discrete_label = "active"

[[record]]
molecule = "CC(=O)c1cc(C(=O)N[C@@H](C)Cn2ccc(-c3ccc(C#N)c(Cl)c3)n2)[nH]n1"
discrete_label = "active"

[[record]]
molecule = "C=C1CCC2C(C)(CO[C@@H]3O[C@H](CO)[C@@H](O)[C@H](O)[C@H]3O)C(O)CCC2(C)C1C(=O)CC1=CCOC1=O (some centres not stated)"
discrete_label = "inactive"

[[record]]
molecule = "CC(C)CCCC(C)CCCC(C)CCCCC(C)CCCC(C)CCCC(C)C (configuration not stated)"
discrete_label = "inactive"

[[record]]
molecule = "C[C@@H]1C/C=C/C=C\\C=C\\C=C\\[C@H](O[C@@H]2O[C@H](C)[C@@H](O)[C@H](N)[C@@H]2O)C[C@@H]2O[C@](O)(C[C@@H](O)C[C@H]3O[C@@H]3/C=C/C(=O)O1)C[C@H](O)[C@H]2C(=O)O"
discrete_label = "inactive"

[[record]]
molecule = "CC[N+]1(C/C2=C/CCCCCC2)CCC(NC(=O)C2c3cc(Cl)ccc3Oc3ccc(Cl)cc32)CC1 (configuration not stated)"
discrete_label = "active"

[[record]]
molecule = "COc1ncc(-c2ccc3c(Nc4cc(Oc5cc(F)cc(F)c5)cc(C(=O)O)c4)c(S(=O)(=O)NC4CC4)cnc3c2)c(OC)n1"
discrete_label = "inactive"

[[record]]
molecule = "CO[C@@H]1[C@@H](OC)[C@H](C)[C@@](O)(CC(=O)O)O[C@H]1[C@H](C)[C@H]1O[C@@]2(CC[C@@](C)([C@H]3CC[C@@](C)([C@@H]4O[C@@H]([C@H]5O[C@](C)(O)[C@H](C)C[C@@H]5C)C[C@@H]4OC4C[C@H](OC)[C@@H](OC)[C@H](C)O4)O3)O2)C[C@H](O)[C@H]1C (some centres not stated)"
discrete_label = "active"

[[record]]
molecule = "COc1ccc([C@H]2CNC(=O)C2)cc1OC1CCCC1"
discrete_label = "inactive"


----------
Experiment: Viability qHTS for spleen associated tyrosine kinase inhibitor (SYKi) drug resistant MV4-11 cells (AID 1963824); note: nearly all actives have a fitted effect of over 35% in size; note: potency is the fitted concentration of half-maximal effect
Conditions: SYKi-resistant MV4-11 viability, CellTiter-Glo, 72 h; series mostly up to 45 µM
Inconclusive results are not listed. Activity calls are given as the source filed them. Calls follow the shape of the dose curve; as a rule, active = well fitted cell-killing curve with a large enough effect; inconclusive = small, poorly fitted or top-dose-only effect, or effect the other way; inactive = no such curve, though single readings can be large or run the other way.
attribute measured: Potency

[[record]]
compound = "NC(=O)c1cn(Cc2c(F)cccc2F)nn1"
attribute_measured = "Potency"
observed_value = "inactive"

[[record]]
compound = "CCn1nc(C2CCN(C(=O)CCO)CC2)nc1-c1cnc(N)c(-c2nnc(C(C)(C)C)o2)n1"
attribute_measured = "Potency"
observed_value = "5.25 µM (active)"

[[record]]
compound = "CCOC(=O)[C@H](CCc1ccccc1)N[C@H]1CCc2ccccc2N(CC(=O)O)C1=O"
attribute_measured = "Potency"
observed_value = "16.6 µM (active)"

[[record]]
compound = "OCc1c[nH]c2ccccc12"
attribute_measured = "Potency"
observed_value = "24.3 µM (active)"

[[record]]
compound = "CC1(C)CC2C=C(C(=O)O)C3COC(=O)C(O)(CO)C23C1 (configuration not stated)"
attribute_measured = "Potency"
observed_value = "inactive"

[[record]]
compound = "CC12CCC(C(OC3OC(COC4OCC(O)(CO)C4O)C(O)C(O)C3O)C1)C(C)(C)O2 (configuration not stated)"
attribute_measured = "Potency"
observed_value = "inactive"

[[record]]
compound = "CC(C)C(NC(=O)c1ccc(O)cc1)C(=O)N1CCCC1C(=O)Nc1c(O)cccc1C(=O)O (configuration not stated)"
attribute_measured = "Potency"
observed_value = "inactive"

[[record]]
compound = "Cc1cc(N2CCOCC2)ccc1Nc1nc(NC2CCCCC2)c2[nH]cnc2n1"
attribute_measured = "Potency"
observed_value = "0.461 µM (active)"

[[record]]
compound = "O=C(CCN1CCN(C(=O)OCc2cc(Cl)cc(Cl)c2)CC1)c1ccc2[nH]c(=O)oc2c1"
attribute_measured = "Potency"
observed_value = "16.6 µM (active)"

[[record]]
compound = "C[C@@H]1CC[C@]2(C(=O)O)CC[C@]3(C(=O)O)C(=CCC4[C@@]5(C)CC[C@H](O[C@@H]6O[C@@H](C)[C@H](O[C@@H]7O[C@H](CO)[C@@H](O)[C@H](O)[C@H]7O)[C@@H](O)[C@H]6O)C(C)(C)C5CC[C@]43C)C2[C@H]1C (some centres not stated)"
attribute_measured = "Potency"
observed_value = "inactive"

[[record]]
compound = "COC(=O)C1=CO[C@@H](O[C@@H]2O[C@H](CO)[C@@H](O)[C@H](O)[C@H]2O)[C@@H]2C(C)CC(=O)[C@]12O (some centres not stated)"
attribute_measured = "Potency"
observed_value = "inactive"

[[record]]
compound = "COc1ccc(C[C@H]2COC(=O)[C@@H]2Cc2ccc(O[C@@H]3O[C@H](CO)[C@@H](O)[C@H](O)[C@H]3O)c(OC)c2)cc1OC"
attribute_measured = "Potency"
observed_value = "1.42 µM (active)"

[[record]]
compound = "O=c1ncccn1[C@@H]1O[C@H](CO)[C@@H](O)[C@H]1O"
attribute_measured = "Potency"
observed_value = "16.6 µM (active)"

[[record]]
compound = "COc1cc(CCC2=NN=C(NC(=O)c3ccc(N4C[C@@H](C)N[C@@H](C)C4)cc3)C2)cc(OC)c1"
attribute_measured = "Potency"
observed_value = "1.46 µM (active)"

[[record]]
compound = "Cc1cc(C)c(S(=O)(=O)N(Cc2ccc(-c3cccc(S(C)(=O)=O)c3)cc2)Cc2ccc(C(F)(F)F)o2)c(C)c1"
attribute_measured = "Potency"
observed_value = "0.0461 µM (active)"

[[record]]
compound = "CC[C@H](CO)Nc1nc(NCc2ccc(-c3ccccn3)cc2)c2ncn(C(C)C)c2n1"
attribute_measured = "Potency"
observed_value = "0.259 µM (active)"

[[record]]
compound = "Cn1c(=O)cc(N2CCCC(N)C2)n(Cc2ccccc2C#N)c1=O (configuration not stated)"
attribute_measured = "Potency"
observed_value = "inactive"

[[record]]
compound = "CCCN1CCCC[C@H]1C(=O)Nc1c(C)cccc1C"
attribute_measured = "Potency"
observed_value = "inactive"

[[record]]
compound = "COC(=O)C1=C(C)NC(C)=C(C(=O)OC)C1c1ccccc1[N+](=O)[O-]"
attribute_measured = "Potency"
observed_value = "11.9 µM (active)"

[[record]]
compound = "O=C(CCCCC1CCCCC1)N1CCC(c2cnc[nH]2)CC1"
attribute_measured = "Potency"
observed_value = "8.2 µM (active)"

[[record]]
compound = "COc1ccc(C2=NC(c3ccc(Cl)cc3)C(c3ccc(Cl)cc3)N2C(=O)N2CCNC(=O)C2)c(OC(C)C)c1 (configuration not stated)"
attribute_measured = "Potency"
observed_value = "18.4 µM (active)"

[[record]]
compound = "C#Cc1cccc(Nc2ncnc3cc(OC)c(OC)cc23)c1"
attribute_measured = "Potency"
observed_value = "1.64 µM (active)"

[[record]]
compound = "C/C=C(/C=C(C)/C=C/C=C/C=C(\\C)C(=O)C12OC1C(O)(CCO)NC2=O)C(=O)OC (configuration not stated)"
attribute_measured = "Potency"
observed_value = "11.2 µM (active)"

[[record]]
compound = "C=C(C(=O)O)[C@@H]1CC=C2CCC[C@H](C)[C@@]2(C)C1"
attribute_measured = "Potency"
observed_value = "inactive"

[[record]]
compound = "Cc1cccc(/C=N/Nc2cc(N3CCOCC3)nc(OCCc3ccccn3)n2)c1"
attribute_measured = "Potency"
observed_value = "0.296 µM (active)"

[[record]]
compound = "O=C(Nc1ccc(Cl)cc1F)c1ccccc1O"
attribute_measured = "Potency"
observed_value = "7.31 µM (active)"

[[record]]
compound = "COc1cc(/C=C/C(=O)O[C@H]2[C@H](O)[C@@H](CO)O[C@@]2(CO)O[C@H]2O[C@H](CO)[C@@H](O)[C@H](O)[C@H]2O)cc(OC)c1O"
attribute_measured = "Potency"
observed_value = "inactive"

[[record]]
compound = "Cc1cc(C(C)(C)C)c(O)c(C)c1CC1=NCCN1"
attribute_measured = "Potency"
observed_value = "inactive"

[[record]]
compound = "CC(C)(C)C1CCC(CC2=C(O)c3ccccc3C(=O)C2=O)CC1 (configuration not stated)"
attribute_measured = "Potency"
observed_value = "inactive"

[[record]]
compound = "Cc1cc(C)nc(NS(=O)(=O)c2ccc(N)cc2)n1"
attribute_measured = "Potency"
observed_value = "inactive"

[[record]]
compound = "O=C(c1c(F)ccc(NS(=O)(=O)N2CC[C@@H](F)C2)c1F)c1c[nH]c2ncc(-c3cnc(C4CC4)nc3)cc12"
attribute_measured = "Potency"
observed_value = "8.2 µM (active)"

[[record]]
compound = "Cc1cc(C)cc(C(=O)NOCCCCCC(=O)NO)c1"
attribute_measured = "Potency"
observed_value = "0.58 µM (active)"

[[record]]
compound = "O=C1OCc2cc3cccc(O[C@@H]4O[C@H](CO)[C@@H](O)[C@H](O)[C@H]4O)c3c(O)c21"
attribute_measured = "Potency"
observed_value = "inactive"

[[record]]
compound = "COC(=O)c1ccc(O)cc1"
attribute_measured = "Potency"
observed_value = "inactive"

[[record]]
compound = "CC(=O)NCCCCn1c2c(c3ccccc31)C(=O)NCC2"
attribute_measured = "Potency"
observed_value = "inactive"

[[record]]
compound = "O=C(OCc1ccccc1O[C@@H]1O[C@H](CO)[C@@H](O)[C@H](O)[C@H]1O)C1(O)C=CCCC1O (some centres not stated)"
attribute_measured = "Potency"
observed_value = "inactive"

[[record]]
compound = "CO/N=C(/C(=O)N[C@@H]1C(=O)N2C(C(=O)[O-])=C(C[n+]3ccn4ncccc43)CS[C@H]12)c1nsc(N)n1"
attribute_measured = "Potency"
observed_value = "inactive"

